# measured_on: T1, human CCR8 (human, UniProt P51685 1-355)
# T1 construct: whole, on cells; the cell line is named under assay; also called hCCR8
# measurement_notes: flow cytometry, competition with 10 nM AF647-human CCL1 on 293F-hCCR8 cells
result_type: IC50 (µg/mL)
Numeric answer only, unit µg/mL assumed.

Fill in: IC50 of 589D7C7 (antibody, V domains shown, Murine hybridoma antibody; also called 589D7C7 hybridoma antibody) VH: EVQLVESGGGLVQPKGSLKLSCAASGFNFNAYAMNWVRQAPGKGLEWVARIRSKSNNFATYYADSVKDRFTISRDDSESMVYLEMNNLKTEDTAMYYCVRHGRRDLLYSMDFWGQGTSVTVSS VL: DIVMTQAAFSNPVTLGTSASISCRSSKSLLHSNGITYLFWYLQKPGQSPQLLIYQMSNLASGVPDRFSGSGSGTDFTLRISRVEAEDVAVYYCAQSLELPLTFGGGTKLEIK is ___
0.075
